Known Human plasma binding percentage obtained in a multi-well container of the invention of a selection of compounds
MEASUREMENT_PROTOCOL: Equilibrium dialysis plasma protein binding in a multi-well container
Assay type: in vitro ADME
SETTINGS: human plasma vs buffer, 37° C. with gentle shaking, LC/MS detection

Reference set (3 entries):
CN(C)CCCN1c2ccccc2CCc2ccccc21	95%
CC(C)NCC(O)COc1cccc2ccccc12 (stereo not shown)	91%
Cc1c(O)cccc1C(=O)N[C@@H](CSc1ccccc1)[C@H](O)CN1C[C@H]2CCCC[C@H]2C[C@H]1C(=O)NC(C)(C)C	>99%

Now, please, on to the next compound.
(Q) Field request: Human plasma binding percentage obtained in a multi-well container of the invention | item: COc1cc(Cc2cnc(N)nc2N)cc(OC)c1OC
(A) 65%
